Give enrichment for every item shown.
B1: peptide HD2 (from tick evasin EVA4) / CXCL14 (biotinylated, synthetic) (parent)
chain 1: EEDDYTAYAPLTCYFT
chain 2: SKCKCSRKGPKIRYSDVKKLEMKPKYPHCEEKMVIITTKSVSRYRGQEHCLHPKLQSTKRFIKWYNAWNEKRRVYEE

Variants of: B1
condition: with CXCL14 (biotinylated, synthetic); scale: log2
One number for each entry.

Worked set:
# query.sequence, enrichment
measured = [
    ("chain 1 EEDDYTAYAPLTCYFY [chain 1 T16Y]", -5.41),
    ("chain 1 EEDDYTAYAPLTCYFR [chain 1 T16R]", -7.45),
    ("chain 1 EEDDYTAEAPLTCYFT [chain 1 Y8E]", -4.45),
    ("chain 1 EEDDKTAYAPLTCYFT [chain 1 Y5K]", -3.86),
    ("chain 1 EEDDYTAYATLTCYFT [chain 1 P10T]", -6.13),
    ("chain 1 EEDDYTAAAPLTCYFT [chain 1 Y8A]", -7.04),
]

Parameters: items (list). Returns: enrichment for each item.
1. chain 1 EEDDYTAYAPLTYYFT [chain 1 C13Y]
2. chain 1 EEDDYTATAPLTCYFT [chain 1 Y8T]
3. chain 1 EEDDYTAQAPLTCYFT [chain 1 Y8Q]
4. chain 1 EEDDYTAYAPKTCYFT [chain 1 L11K]

1: -7.01; 2: -6.74; 3: -4.62; 4: -5.25
